target: EGFR(L858R/T790M) (Homo sapiens, UniProt P00533, L858R/T790M); construct: purchased from Carna (GST-a.a. 669-1210); assay: EGFR biochemical assay (HTRF), IC50 determinations; conditions: EGFR (L858R/T790M) with no pre-incubation; read-out: IC50 (μM) Column A
Sequence (P00533 669-1210 T790M/L858R): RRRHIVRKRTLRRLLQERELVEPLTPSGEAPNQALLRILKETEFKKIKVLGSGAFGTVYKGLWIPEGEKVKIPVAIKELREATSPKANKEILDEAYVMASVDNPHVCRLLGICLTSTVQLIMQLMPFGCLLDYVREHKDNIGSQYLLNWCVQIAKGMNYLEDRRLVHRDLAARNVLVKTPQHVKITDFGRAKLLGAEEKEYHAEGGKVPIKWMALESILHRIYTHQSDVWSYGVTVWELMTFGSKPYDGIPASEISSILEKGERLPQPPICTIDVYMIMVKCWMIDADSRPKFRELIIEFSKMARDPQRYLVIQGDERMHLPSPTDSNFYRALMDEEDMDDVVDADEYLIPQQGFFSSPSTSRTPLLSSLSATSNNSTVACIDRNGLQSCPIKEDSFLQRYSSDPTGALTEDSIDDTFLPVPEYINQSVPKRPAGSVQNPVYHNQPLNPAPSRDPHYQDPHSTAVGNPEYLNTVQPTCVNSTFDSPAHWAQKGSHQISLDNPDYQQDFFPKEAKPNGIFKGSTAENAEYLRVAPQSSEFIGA
PARAMETER: IC50 (µM)

Some solved cases for reference:
compound="Cc1ccc(C(=O)Nc2nc3cccc(C)c3n2C2CCCCN(C(=O)/C=C/CN(C)C)C2)cn1 (stereo not drawn) [Example 17-47]" parameter=IC50 unit_info=µM number=0.009
compound="Cc1cc(C(=O)Nc2nc3cccc(Cl)c3n2[C@@H]2CCCCN(C(=O)/C=C/CNC3(C)CC3)C2)ccn1 [Example 17-192]" parameter=IC50 unit_info=µM number=0.003
compound="C=CC(=O)N1CCCC[C@@H](n2c(NC(=O)c3ccnc(C)c3)nc3cc(CN4CC[C@@H](F)C4)cc(C)c32)C1 [Example 17-148]" parameter=IC50 unit_info=µM number=0.002
compound="C=CC(=O)N1CCCC[C@@H](n2c(NC(=O)c3cc(C)nc(C)c3)nc3cc(CN4CC[C@H](OC)C4)cc(C)c32)C1 [Example 17-156]" parameter=IC50 unit_info=µM number=0.001
compound="C=CC(=O)N1CCCCC(n2c(NC(=O)c3ccccc3)nc3cccc(C(=O)N4CCS(=O)(=O)CC4)c32)C1 (stereo not drawn) [Example 17-115]" parameter=IC50 unit_info=µM number=3.5

I. C=CC(=O)N1CCCC(n2c(NC(=O)c3cccc(C(F)(F)F)c3)nc3c2CCN(S(C)(=O)=O)C3)C1 (stereo not drawn) [Example 17-168]
II. Cc1cc(C(=O)Nc2nc3cccc(Cl)c3n2C2CCCCN(C(=O)/C=C/CN(C)C)C2)cc(P(C)(C)=O)n1 (single isomer, unassigned) [Example 21-9A]
Determine, for I and II , which has the greater value of IC50. Let me know the label of the one you choose.
II

A. Cc1cccc2nc(NC(=O)c3ccnc(F)c3)n(C3CCCCN(C(=O)/C=C/CN(C)C)C3)c12 (stereo not drawn) [Example 17-58]
B. Cc1cccc2nc(NC(=O)c3cccc(-n4cnnn4)c3)n(C3CCCCN(C(=O)/C=C/CN(C)C)C3)c12 (stereo not drawn) [Example 17-53]
C. C=CC(=O)N1CCCC[C@@H](n2c(NC(=O)c3ccnnc3)nc3cccc(OC)c32)C1 [Example 17-84]
Sort ascending by IC50. Your answer should be the labels, listed in the requested order.
B, A, C
(B: 0.002 µM, A: 0.005 µM, C: 0.049 µM)

I. Cc1cccc2nc(NC(=O)c3ccncc3)n(C3CCCCN(C(=O)/C=C/CN(C)C)C3)c12 (stereo not drawn) [Example 17-35]
II. C=CC(=O)N1CCC[C@@H](n2c(NC(=O)c3cccc(C(F)(F)F)c3)nc3cc(COC)ccc32)C1 [Example 17-122]
Lower value for measured IC50? Options: I , II Your choice should be expressed through its label.
I
(I: 0.006 µM, II: 0.062 µM)

A. CN(C)C/C=C/C(=O)N1CCC[C@@H](n2c(NC(=O)c3cccc(C(F)(F)F)c3)nc3cc(CO)ccc32)C1 [Example 17-143]
B. Cc1cc(C(=O)Nc2nc3cccc(Cl)c3n2[C@@H]2CCCCN(C(=O)/C=C/CN3CC(O)C3)C2)ccn1 [Example 3-13]
C. C=CC(=O)N1CCCC(n2c(NC(=O)c3cccc(C(F)(F)F)c3)nc3c2CN(C)CC3)C1 (stereo not drawn) [Example 17-173]
D. Cc1cccc2nc(NC(=O)c3cccc(Cl)c3F)n(C3CCCCN(C(=O)/C=C/CN(C)C)C3)c12 (stereo not drawn) [Example 17-31]
Order field: IC50 | Direction: descending (largest first) Answer by naming the labels in the order asked.
C, A, D, B
(C: 6.6 µM, A: 0.233 µM, D: 0.016 µM, B: 0.007 µM)
